This collection of values is drawn from patent US9108958B2.

Biological target: CCR2 (Homo sapiens, UniProt P41597)
Construct: Membranes were prepared from THP-1 cells; endogenous in cells; host or cells: THP-1 (human acute monocytic leukaemia cells), membrane preparation
Sequence (P41597 1-360 isoform P41597-2): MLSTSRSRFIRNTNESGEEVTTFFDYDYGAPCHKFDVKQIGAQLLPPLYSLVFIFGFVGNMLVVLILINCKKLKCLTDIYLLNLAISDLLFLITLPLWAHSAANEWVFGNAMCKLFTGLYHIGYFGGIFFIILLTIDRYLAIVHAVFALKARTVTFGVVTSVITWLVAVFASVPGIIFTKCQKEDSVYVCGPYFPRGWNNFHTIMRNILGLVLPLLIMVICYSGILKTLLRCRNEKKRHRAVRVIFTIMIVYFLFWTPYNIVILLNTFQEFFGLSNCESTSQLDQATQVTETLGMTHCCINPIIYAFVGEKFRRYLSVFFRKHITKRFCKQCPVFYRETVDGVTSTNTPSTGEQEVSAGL
Assay: CCR2 receptor membrane binding assay ([125I]MCP-1, THP-1 cell membranes, SPA beads)
Settings: THP-1 membranes, [125I]MCP-1, bound radioactivity after 8 h; read-out: hKi [nM](CCR2)
assay.endpoint: Ki (nM)

Solved entries (count: 5):
In [3]: df
Out[3]:
                                   compound  experimental_value
0  CO[C@@H]1COCC[C@@H]1NC1CCN(C(=O)c2nc(C(F)(F)F)nc(N3CCc4ccc(C(F)(F)F)cc4C3)c2C)CC1                   2
1  Cc1c(C(=O)N2CCC(N[C@@H]3CCOC[C@@H]3F)CC2)nc(C2CCOCC2)nc1N1CCc2ccc(C(F)(F)F)cc2C1                   3
2  CO[C@H]1COCC[C@H]1NC1CCN(C(=O)c2nc(C3CCOCC3)nc(N3CCc4ccc(C(F)(F)F)cc4C3)c2C)CC1                 0.8
3  Cc1cc(-c2nc(NC[C@H]3CCC[C@@H](c4ccc(C(F)(F)F)cc4)O3)c(C)c(C(=O)N3CCC(N[C@H]4CCOC[C@H]4F)CC3)n2)no1                   1
4  Cc1cc(-c2nc(C(=O)N3CCC(N[C@H]4CCOC[C@H]4F)CC3)c(C)c(N3CCc4ccc(C(F)(F)F)cc4C3)n2)no1                  15

[P] CO[C@H]1COCC[C@H]1NC1CCN(C(=O)c2nc(C(F)(F)F)nc(N3CCc4ccc(C(F)(F)F)cc4C3)c2C)CC1
[Q] CO[C@@H]1COCC[C@@H]1NC1CCN(C(=O)c2nc(CF)nc(Nc3ccc(Cl)c(Cl)c3)c2C)CC1
[R] Cc1ccc([C@@H]2CCC[C@H](CNc3cc(C(=O)N4CCC(NC5CCOCC5F)CC4)nc(CF)n3)O2)cc1 (stereo partly shown)
Rank ascending by Ki. Answer with the labels in sequence, matching the requested order.
Q, P, R
(Q: 0.6 nM, P: 3 nM, R: 15 nM)

====

Target: CCR2 (Homo sapiens, UniProt P41597)
Construct: Membranes were prepared from THP-1 cells; endogenous in cells; host or cells: THP-1 (human acute monocytic leukaemia cells), membrane preparation
Assay: CCR2 receptor membrane binding assay ([125I]MCP-1, THP-1 cell membranes, SPA beads)
Details: THP-1 membranes, [125I]MCP-1, bound radioactivity after 8 h; read-out: hKi [nM](CCR2)
assay.endpoint: Ki (nM)

                                   compound                  experimental_system  experimental_value
0  Cc1c(Nc2ccc(Cl)c(Cl)c2)nc(CF)nc1C(=O)N1CCC(N2CCOCC2)CC1  CCR2 (Homo sapiens, UniProt P41597)                  37
1  Cc1c(C(=O)N2CCC(N[C@@H]3CCOC[C@@H]3F)CC2)nc(C2CCOCC2)nc1N1CCc2cc(C(F)(F)F)ccc2C1  CCR2 (Homo sapiens, UniProt P41597)                  11
2  CO[C@@H]1COCC[C@@H]1NC1CCN(C(=O)c2nc(C3CCN(C(C)=O)CC3)nc(Nc3ccc(Cl)c(Cl)c3)c2C)CC1  CCR2 (Homo sapiens, UniProt P41597)                   4

[I] Cc1cc(-c2nc(C(=O)N3CCC(N[C@@H]4CCOC[C@@H]4F)CC3)c(C)c(N3CCc4ccc(C(F)(F)F)cc4C3)n2)no1
[II] Cc1c(C(=O)N2CCC(N[C@H]3CCOC[C@@H]3F)CC2)nc(CF)nc1N1CCc2ccc(C(F)(F)F)cc2C1 (relative stereo)
Response body: label of entry with the larger Ki; valid values I , II . Your choice should be expressed through its label.
II
(II: 34 nM, I: 11 nM)

[P] Cc1c(C(=O)N2CCC(NC3CCOCC3)CC2)nc(C(F)(F)F)nc1N1CCc2ccc(C(F)(F)F)cc2C1
[Q] CC(=O)N1CCC(c2nc(Nc3ccc(Cl)c(Cl)c3)c(C)c(C(=O)N3CCC(N[C@@H]4CCOC[C@@H]4F)CC3)n2)CC1
[R] CO[C@H]1COCC[C@H]1NC1CCN(C(=O)c2cc(NC[C@H]3CCC[C@@H](c4ccc(SC)cc4)O3)nc(CF)n2)CC1
With regard to Ki, arrange the entries in ascending order, please. In plain terms: list the labels in the order you were asked to.
R, P, Q
(R: 2 nM, P: 7 nM, Q: 17 nM)

[1] CO[C@H]1COCC[C@H]1NC1CCN(C(=O)c2nc(CF)nc(Nc3ccc(Cl)c(Cl)c3)c2C)CC1
[2] Cc1cc(-c2nc(C(=O)N3CCC(N[C@@H]4CCOC[C@@H]4F)CC3)c(C)c(N3CCc4cc(C(F)(F)F)ccc4C3)n2)no1
1 or 2 : whose Ki is greater? Mark your selection by writing its label.
2
(2: 20 nM, 1: 2 nM)
